Here, each record is paired with measured EC50 data.
- assay_system: human FXR (Homo sapiens)
- test_name: FXR reporter assay (cellular FXR activities)
- condition_label: FXR reporter cells, 24 hours incubation, luciferase; read-out: Reporter Cell EC50

Solved cases (3 shown):
CCNCc1cc(C#Cc2ccc(OCc3c(-c4c(Cl)cccc4Cl)noc3C3CC3)cc2Cl)cc(C(=O)O)c1    200 to 1000 nM
NS(=O)(=O)c1cccc(C#Cc2ccc(OCc3c(-c4c(Cl)cccc4Cl)noc3C3CC3)cc2Cl)c1    200 to 1000 nM
O=C(O)c1cc(C#Cc2ccc(OCc3c(-c4c(Cl)cccc4Cl)noc3C3CC3)cc2Cl)ccc1Cl    60 to 200 nM

Moving on to another compound below.
Q) Answer with reported EC50 of O=C(O)c1ccc(F)c(C#Cc2ccc(OCc3c(-c4c(Cl)cccc4Cl)noc3C3CC3)cc2Cl)c1
A) 60 to 200 nM

----------
Collected pEC50 values appear next to each entry.
- assay_system: human FXR (Homo sapiens)
- test_name: FXR reporter assay (cellular FXR activities)
- condition_label: FXR reporter cells, 24 hours incubation, luciferase; read-out: Reporter Cell EC50
pEC50: −log10 of the molar value. Where a name gives a salt, the structure may show the parent alone.

Please review the following examples before continuing.
O=C(O)c1cc(C#Cc2ccc(OCc3c(-c4c(Cl)cccc4Cl)noc3C3CC3)cc2Cl)ccc1F [Compound I-37]    6.70 to 7.22
O=C(O)c1cc(Cl)cc(C#Cc2ccc(OCc3c(-c4c(Cl)cccc4Cl)noc3C3CC3)cc2Cl)c1 [Compound I-27]    7.22 to 7.70
O=C(O)c1cc(C#Cc2ccc(OCc3c(-c4c(Cl)cccc4Cl)noc3C3CC3)cc2Cl)cc(CNC2CC2)c1 [Compound I-42]    7.22 to 7.70

Proceed to the following item.
Q) Annotate the compound O=C(O)c1cc(C#Cc2ccc(OCc3c(-c4c(Cl)cccc4Cl)noc3C3CC3)cc2Cl)cc(N2CCNCC2)c1 [Compound I-59, hydrochloride] with its measured pEC50.
A) 6.00 to 6.70

----------
- assay_system: human FXR (Homo sapiens, UniProt Q96RI1)
- Construct: expressed in transfected cells
- Sequence (Q96RI1 1-486): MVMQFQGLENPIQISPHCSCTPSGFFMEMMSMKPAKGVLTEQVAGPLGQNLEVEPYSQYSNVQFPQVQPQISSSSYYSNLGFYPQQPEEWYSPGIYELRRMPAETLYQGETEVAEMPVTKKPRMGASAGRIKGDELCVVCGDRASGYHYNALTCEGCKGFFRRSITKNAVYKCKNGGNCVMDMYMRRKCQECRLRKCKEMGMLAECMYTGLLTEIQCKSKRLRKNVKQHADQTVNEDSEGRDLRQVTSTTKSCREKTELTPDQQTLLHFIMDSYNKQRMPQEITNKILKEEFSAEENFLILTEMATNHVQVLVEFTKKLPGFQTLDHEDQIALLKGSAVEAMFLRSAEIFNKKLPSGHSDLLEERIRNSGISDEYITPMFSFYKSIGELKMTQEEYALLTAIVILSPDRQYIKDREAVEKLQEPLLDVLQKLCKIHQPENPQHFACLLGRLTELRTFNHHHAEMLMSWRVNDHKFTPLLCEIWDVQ
- test_name: FXR reporter assay (cellular FXR activities)
- Assay type: cell-based
- condition_label: read-out: Emax (%) (GW4064 Emax = 100%)
measurement_name: Emax (%)
# value in %; strip the unit string

CC(C)c1nc2cc(C#Cc3ccc(OCc4c(-c5c(Cl)cccc5Cl)noc4C4CC4)cc3Cl)cc(C(=O)O)c2o1 [Compound I-106]    96
CC(C)NCCCn1ccc2c(C#Cc3ccc(OCc4c(-c5c(Cl)cccc5Cl)noc4C4CC4)cc3Cl)cc(C(=O)O)cc21 [Compound I-93]    82
CC(C)(C)NCc1cc(C#Cc2ccc(OCc3c(-c4c(Cl)cccc4Cl)noc3C3CC3)cc2Cl)cc(C(=O)O)c1 [Compound I-48]    81
O=C(O)c1cc(C#Cc2ccc(OCc3c(-c4c(Cl)cccc4Cl)noc3C3CC3)cc2Cl)c2cn[nH]c2c1 [Compound I-89]    88
O=C(O)c1cc(C#Cc2ccc(OCc3c(-c4c(Cl)cccc4Cl)noc3C3CC3)cc2Cl)c2ccn(CCO)c2c1 [Compound I-97]    94

Q) Identify the reported Emax for the following entry. O=C(O)c1cc(C#Cc2ccc(OCc3c(-c4c(Cl)cccc4Cl)noc3C3CC3)cc2Cl)cc(OC(F)(F)F)c1 [Compound I-39]
A) 85

Q) Quick one: give measured Emax for O=C(O)c1cc(F)cc(C#Cc2ccc(OCc3c(-c4c(Cl)cccc4Cl)noc3C3CC3)cc2Cl)c1 [Compound I-30]
A) 92

Q) Look up Emax of C#Cc1cc(C#Cc2ccc(OCc3c(-c4c(Cl)cccc4Cl)noc3C3CC3)cc2Cl)cc(C(=O)O)c1 [Compound I-32] and report it.
A) 94

Q) State, in one line, measured Emax of N#Cc1cc(C#Cc2ccc(OCc3c(-c4c(Cl)cccc4Cl)noc3C3CC3)cc2Cl)cc(C(=O)O)c1 [Compound I-33]
A) 99

Q) Retrieve Emax measured for O=C(O)c1ccc(C#Cc2ccc(OCc3c(-c4c(Cl)cccc4Cl)noc3C3CC3)cc2C(F)(F)F)cc1 [Compound I-4] and print it.
A) 91

Q) Please report Emax for the following compound: CCc1nc2c(C(=O)O)cc(C#Cc3ccc(OCc4c(-c5c(Cl)cccc5Cl)noc4C4CC4)cc3Cl)cc2o1 [Compound I-113]
A) 96

Q) Hello, please tell me recorded Emax for this one: COc1cc(C#Cc2ccc(OCc3c(-c4c(Cl)cccc4Cl)noc3C3CC3)cc2Cl)cc(C(=O)O)c1 [Compound I-40]
A) 83

Q) Fill in Emax for record O=C(O)c1cccc(C#Cc2ccc(OCc3c(-c4c(Cl)cccc4Cl)noc3C3CC3)cc2Cl)c1 [Compound I-15]
A) 82
